Reported values: IC50 for Poly [ADP-ribose] polymerase 1 (Homo sapiens, UniProt P09874), one per item.
Answers are plain numbers, in µM.

These recorded examples may help you get a feel for the data.
COc1cc(CN2CCN(c3ccc(C(=O)NC4CC4)cc3)CC2)cc2c1OC(C)C(=O)N2 (racemic)	0.03
CCOc1cc(CN2CCN(c3ccc(C(=O)NC4CC4)cc3C)CC2)cc2c1OC(C)C(=O)N2 (racemic)	0.041
CCOc1cc(CN2CCN(c3ccc(C(=O)NC)cc3C)CC2)cc2c1OC(C)C(=O)N2 (racemic)	0.035
CNC(=O)c1ccc(N2CCN(Cc3cc(C)c4c(c3)NC(=O)C(C)O4)CC2)cc1 (racemic)	0.017
CNC(=O)c1ccc(N2CCN(Cc3cc4c(c(OC)c3)OC(C)C(=O)N4)CC2)c(C)c1 (racemic)	0.036

With those in mind, consider the next compound.
Input line: Please supply the value of reported IC50 for the item CNC(=O)c1ccc(N2CCN(Cc3cc(C)c4c(c3)NC(=O)C(C)O4)CC2)c(C)c1 (racemic)
Output line: 0.038

These entries and their values trace back to ChEMBL document CHEMBL2407000.
